# assay-setup: 298.15 K; 101.33 kPa; Liquid
observed-property: mass density (kg/m3)

{"smi": "CC(C)CC(C)(C)C", "value": 687.72}
{"smi": "CC(C)OC(C)C", "value": 718.14}
{"smi": "COC(C)(C)C", "value": 735.4}
{"smi": "COCOC", "value": 847.51}
